Overview of reported normalized growth across a group of molecules:
- assay procedure: chemical genetic growth profiling, strain panel (AID 1159580);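 further: tested at 20 µM; growth read once vehicle control cultures reached saturation at 30 °C; 1 = growth at the plate median or of vehicle wells; lower values mean less growth of the strain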
- test conditions: S. cerevisiae deletion strains, growth OD, locus YJL164C, strain tpk1, hits give low values
The campaign covered roughly 5,500 compounds. About 2,000 (36%) were called active. Not shown: some 18% with an inconclusive outcome. Some of the results follow.

- molecule: "CCCCCCCCCCCCCc1ccco1"
  normalized growth: 0.915
- molecule: "Oc1cc(O)c2c(c1)O[C@H](c1ccc(O)c(O)c1)[C@H](O)C2"
  normalized growth: 1
- molecule: "Cn1c(=O)c2c(ncn2CC(O)CO)n(C)c1=O (centres undefined)"
  normalized growth: 0.998
- molecule: "Oc1cc(O)c2c(c1)O[C@H](c1ccc(O)c(O)c1)[C@@H](O)C2"
  normalized growth: 1.01

---

- assay procedure: chemical genetic growth profiling, strain panel (AID 1159580)
- test conditions: S. cerevisiae deletion strains, growth OD, locus YKL160W, strain elf1, hits give low values
Among all 5,500 compounds or so, about 2,000 (36%) were called active. Inconclusive results (about 18%) are left out. The list shows a part of the results.

- molecule: "Oc1cc(O)c2c(c1)O[C@H](c1cc(O)c(O)c(O)c1)[C@H](O)C2"
  normalized growth: 1.01
- molecule: "CC#CC1(O)CCC2C3CCC4=CC(=O)CCC4=C3C(c3ccc(N(C)C)cc3)CC21C (stereo not given)"
  normalized growth: 0.99
- molecule: "COc1ccc2c(c1)OC/C(=C\\c1ccc(OC)c(O)c1)C2=O"
  normalized growth: 0.831
- molecule: "COc1ccc2c(c1)OC/C(=C/c1ccc(OC)c(OC)c1)C2=O"
  normalized growth: 0.758
- molecule: "O=C(O[C@@H]1Cc2c(O)cc(O)cc2O[C@@H]1c1cc(O)c(O)c(O)c1)c1cc(O)c(O)c(O)c1"
  normalized growth: 0.936
- molecule: "COc1ccc([C@H]2Oc3c(I)c(OC)cc(OC)c3C[C@@H]2O)cc1OC"
  normalized growth: 1.02
- molecule: "CCN1CCCC(OC(=O)C(c2ccccc2)c2ccccc2)C1 (stereo not given)"
  normalized growth: 0.983
- molecule: "CC(=O)Oc1cc(OC(C)=O)c2c(c1)O[C@H](c1ccc(OC(C)=O)c(OC(C)=O)c1)[C@@H](OC(C)=O)C2"
  normalized growth: 1
- molecule: "CN1CCC(OC(c2ccccc2)c2ccccc2)CC1"
  normalized growth: 1.03
- molecule: "COC(=O)[C@@H]1OC(=O)C2OC23[C@@]1(C)CCC1[C@]2(C)C(C[C@H](O)[C@]13C)C(C)(C)[C@H](OC(C)=O)C[C@@H]2OC(C)=O (stereo not given in full)"
  normalized growth: 1.02
- molecule: "Cc1[nH]c2ccccc2c1CN(C)C"
  normalized growth: 1.01
- molecule: "CN1CC(=O)N=C1N"
  normalized growth: 1.01
- molecule: "CC1(O)CC2C(CC1O)C2(C)C (stereo not given)"
  normalized growth: 0.994
- molecule: "C=CC[C@]1(O)CCC2C3CCC4=CC(=O)CCC4=C3C=C[C@@]21C (stereo not given in full)"
  normalized growth: 0.984
- molecule: "C=C[C@@](C)(O)CCC1C(=C)C[C@H](OC(C)=O)C2C(C)(C)CCCC12C (stereo not given in full)"
  normalized growth: 0.995
- molecule: "CC[C@@H]1C=C/C=C/C[C@H](C)[C@@H](O)[C@](C)(O)C(=O)[C@H](C)[C@@H](O)[C@H](C)C(=O)[C@H](C)[C@@H](O)[C@H](C)/C=C/C(=O)O[C@H]2[C@@H](C)[C@@H](CC1)O[C@@]1(CC[C@@H](C)[C@@H](C[C@H](C)O)O1)[C@@H]2C"
  normalized growth: 0.997
- molecule: "Cc1ncc(CNC(=O)N(CCCl)N=O)c(N)n1"
  normalized growth: 0.996
- molecule: "CCOC(=O)n1ccn(C)c1=S"
  normalized growth: 1.04
- molecule: "C=C[C@@](C)(O)CCC1C(=C)C[C@H](O)C2C(C)(C)CCCC12C (stereo not given in full)"
  normalized growth: 0.981
- molecule: "CC(=O)Oc1cc(OC(C)=O)c2c(c1)O[C@H](c1ccc(OC(C)=O)c(OC(C)=O)c1)[C@H](OC(C)=O)C2"
  normalized growth: 1.01
- molecule: "C=C[C@@](C)(O)CCC1C(=C)CCC2[C@@](C)(CO)CCC[C@]12C (stereo not given in full)"
  normalized growth: 0.966
- molecule: "CN(C)CCOC(c1ccc(Cl)cc1)c1ccccn1 (stereo not given)"
  normalized growth: 1.02
- molecule: "O=c1cccc2ccc(O)c(O)c2c1O"
  normalized growth: 0.901
- molecule: "CCCCNC(=O)NS(=O)(=O)c1ccc(C)cc1"
  normalized growth: 1
- molecule: "CCN(CC)Cc1ccc(Nc2ccnc3cc(Cl)ccc23)cc1O"
  normalized growth: 1.04

---

- assay procedure: chemical genetic growth profiling, strain panel (AID 1159580);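 further: tested at 20 µM; growth read once vehicle control cultures reached saturation at 30 °C; 1 = growth at the plate median or of vehicle wells; lower values mean less growth of the strain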
- test conditions: S. cerevisiae deletion strains, growth OD, locus YDL185W, strain tfp1, hits give low values
Out of some 5,500 compounds screened, about 2,000 (36%) were called active. Roughly 18% stayed inconclusive and do not appear here. Some of the results follow.
Overview of reported normalized growth across a group of compounds:
property label: normalized growth

- structure smiles string: "CCC[C@H](N[C@@H](C)C(=O)N1[C@H](C(=O)O)C[C@@H]2CCCC[C@@H]21)C(=O)OCC"
  experimental result: 1.02
- structure smiles string: "CC(=O)Oc1cc(OC(C)=O)c2c(c1)O[C@H](c1ccc(OC(C)=O)c(OC(C)=O)c1)[C@H](OC(C)=O)C2"
  experimental result: 1.03
- structure smiles string: "O=C(O[C@@H]1Cc2c(O)cc(O)cc2O[C@@H]1c1cc(O)c(O)c(O)c1)c1cc(O)c(O)c(O)c1"
  experimental result: 0.994

---

- assay procedure: chemical genetic growth profiling, strain panel (AID 1159580);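 further: tested at 20 µM; growth read once vehicle control cultures reached saturation at 30 °C; 1 = growth at the plate median or of vehicle wells; lower values mean less growth of the strain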
- test conditions: S. cerevisiae deletion strains, growth OD, locus YDR162C, strain NBP2, hits give low values
The whole screen tested about 5,500 compounds, of which about 2,000 (36%) were called active. Roughly 18% stayed inconclusive and do not appear here. The list shows a part of the results.

- compound: "CN1CCC(OC(c2ccccc2)c2ccccc2)CC1"
  normalized growth: 1.01
- compound: "CNC(=O)O/N=C(\\C)SC"
  normalized growth: 0.987
- compound: "CN(C)CCOC(c1ccc(Cl)cc1)c1ccccn1 (stereo unspecified)"
  normalized growth: 0.975
- compound: "CCC(C)C(=O)O[C@@H]1C[C@@]2(C)[C@H](c3ccoc3)OC(=O)CC23OC2(C)OC34[C@H](OC(=O)C(C)C)[C@@]3(O)[C@@H](OC(=O)C5(C)OC5C)[C@@]5(C)C[C@]3(O)[C@@](C)([C@H]5CC(=O)OC)C14O2 (stereo partly specified)"
  normalized growth: 0.993
- compound: "O=C1NCC2(CCN(CCc3ccccc3)CC2)O1"
  normalized growth: 1.01
- compound: "COC(=O)C[C@H]1C2(C)CC34OC5(C)O[C@@]6([C@H](OC)C(OC(=O)C(C)C)[C@]7(C)C(/C(=C(/OC)C(C)C)C(=O)O[C@H]7c7ccoc7)[C@@]6(O5)[C@H](OC)[C@@]3(OC)C2OC(C)=O)[C@]14C (stereo partly specified)"
  normalized growth: 1.02

---

- assay procedure: chemical genetic growth profiling, strain panel (AID 1159580);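 further: tested at 20 µM; growth read once vehicle control cultures reached saturation at 30 °C; 1 = growth at the plate median or of vehicle wells; lower values mean less growth of the strain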
- test conditions: S. cerevisiae deletion strains, growth OD, locus YML120C, strain ndi1
About 2,000 (36%) of roughly 5,500 compounds were called active. Roughly 18% stayed inconclusive and do not appear here. Cut-off read from the data, not from the text of the source: active = normalized growth mostly below about 0.91 (no sharp cut-off); inconclusive = no clear call, values can overlap the other calls; inactive = mostly above about 0.92. The list shows a part of the results.
Classes used: t for active, f for inactive

- molecule: "C/C=C(\\C)C(=O)O[C@H]1C[C@@H](OC(C)=O)[C@@]2(C(=O)OC)CO[C@@H]3C2[C@]12CO[C@](O)(C(=O)OC)[C@H]2[C@](C)(C12O[C@@]1(C)[C@H]1C[C@@H]2OC2OC=C[C@@]21O)[C@@H]3O (stereo partly drawn)"
  assigned class: "f"
- molecule: "Oc1ccc2c(c1)O[C@H](c1ccc(O)c(O)c1)[C@@H](O)C2"
  assigned class: "f"
- molecule: "C=C[C@@](C)(O)CCC1C(=C)C[C@H](O)C2C(C)(C)CCCC12C (stereo partly drawn)"
  assigned class: "f"
- molecule: "COc1cc([C@@H]2c3cc4c(cc3C(OC3O[C@@H]5COC(C)O[C@H]5[C@H](O)[C@H]3O)C3COC(=O)[C@@H]32)OCO4)cc(OC)c1O (stereo partly drawn)"
  assigned class: "f"
- molecule: "Cc1ncc(CNC(=O)N(CCCl)N=O)c(N)n1"
  assigned class: "f"
- molecule: "C=CC[C@]1(O)CCC2C3CCC4=CC(=O)CCC4=C3C=C[C@@]21C (stereo partly drawn)"
  assigned class: "f"
- molecule: "COc1cc([C@@H]2c3cc4c(cc3[C@@H](O)C3COC(=O)C32)OCO4)cc(OC)c1O (stereo partly drawn)"
  assigned class: "f"
- molecule: "Nc1nc(=S)c2[nH]cnc2[nH]1"
  assigned class: "f"
- molecule: "CC[C@@]1(O)C[C@H](O)c2c(cc3c(c2O)C(=O)c2c(O)ccc(O)c2C3=O)[C@H]1C(=O)OC"
  assigned class: "f"
- molecule: "O=C1C(Cl)=C(Cl)C(=O)C(Cl)=C1Cl"
  assigned class: "t"
- molecule: "O=C(O)CCCc1ccc(N(CCCl)CCCl)cc1"
  assigned class: "f"
- molecule: "CN(C)CCOC(c1ccc(Cl)cc1)c1ccccn1 (stereo not drawn)"
  assigned class: "f"
- molecule: "CCOC(=O)n1ccn(C)c1=S"
  assigned class: "f"
- molecule: "O=C(O[C@@H]1Cc2c(O)cc(O)cc2O[C@@H]1c1cc(O)c(O)c(O)c1)c1cc(O)c(O)c(O)c1"
  assigned class: "f"
- molecule: "Cc1ccccc1C(OCCN(C)C)c1ccccc1 (stereo not drawn)"
  assigned class: "f"
- molecule: "OCCc1ccccc1"
  assigned class: "f"
- molecule: "COc1cc2nc(N(C)CCCNC(=O)C3CCCO3)nc(N)c2cc1OC (stereo not drawn)"
  assigned class: "f"
- molecule: "N[C@@H](Cc1ccc(N(CCCl)CCCl)cc1)C(=O)O"
  assigned class: "f"
- molecule: "COc1ccc2c(c1)OC/C(=C\\c1ccc(OC)c(O)c1)C2=O"
  assigned class: "t"
- molecule: "COC(=O)C[C@H]1C2(C)CC34OC5(C)O[C@@]6([C@H](OC(C)=O)C(OC(C)=O)[C@]7(C)C(/C(=C(/O)C(C)C)C(=O)O[C@H]7c7ccoc7)[C@@]6(O5)[C@H](OC(C)=O)[C@@]3(O)C2OC(=O)C(C)C)[C@]14C (stereo partly drawn)"
  assigned class: "f"
- molecule: "C#CCCCCCCCCCCCc1ccco1"
  assigned class: "f"
- molecule: "CNCCC(Oc1ccc(C(F)(F)F)cc1)c1ccccc1 (stereo not drawn)"
  assigned class: "f"
- molecule: "O=c1cccc2ccc(O)c(O)c2c1O"
  assigned class: "t"
- molecule: "O=C1NCC2(CCN(CCc3ccccc3)CC2)O1"
  assigned class: "f"
- molecule: "CN1CCC(OC(c2ccccc2)c2ccccc2)CC1"
  assigned class: "f"
- molecule: "Nc1ncn[nH]1"
  assigned class: "f"
- molecule: "CCC(C)C(=O)O[C@@H]1C[C@@]2(C)[C@H](c3ccoc3)OC(=O)CC23OC2(C)O[C@]14[C@]1(C)[C@@H](CC(=O)OC)C5(C)CC1(O)[C@](O)(C5OC(=O)C1(C)OC1C)[C@@H](OC(C)=O)[C@]34O2 (stereo partly drawn)"
  assigned class: "f"
- molecule: "COc1ccc(-c2coc3cc(O)ccc3c2=O)c(OC)c1O"
  assigned class: "f"
- molecule: "CC#CC1(O)CCC2C3CCC4=CC(=O)CCC4=C3C(c3ccc(N(C)C)cc3)CC21C (stereo not drawn)"
  assigned class: "f"
- molecule: "COc1ccc2c(c1)OC/C(=C/c1ccc(OC)c(OC)c1)C2=O"
  assigned class: "f"
- molecule: "NCCCS(=O)(=O)O"
  assigned class: "f"
- molecule: "CCC[C@H](N[C@@H](C)C(=O)N1[C@H](C(=O)O)C[C@@H]2CCCC[C@@H]21)C(=O)OCC"
  assigned class: "f"
- molecule: "C=C[C@@](C)(O)CCC1C(=C)CCC2[C@@](C)(CO)CCC[C@]12C (stereo partly drawn)"
  assigned class: "f"
